OD reference
target: soluble 2004 H5 HA (Influenza A virus (H5N1, 2004)); test: ELISA, supernate
Numeric only. Scale: OD

Record excerpt, results attached:
• mAb 8F24 (antibody, V domains shown) VH: EVQLLESGGGLVQPGGSLRLSCAASGFAFSSYGMSWVRQAPGKGLEWVSAFSGSGTSTYYADSVKGRFTISRDKSKNTLYLQMNSLRAEDTAIYYCAKPPGPYIVVAGLFENWGRGTLVTVS VL: EIVMTQSPATLSVSPGERVTLSCRASQSITDGLAWYQQKSGQAPRLLIYGASTRATGIPARFSGSGSGTEFTLTISSLQSEDFAVYYCQQYNNWPPVTFGQGTKVEIKR = 0.074
• mAb 2K11 (antibody, V domains shown) VH: EVQLVESGGGLVQPGGSLRLSCVASTFSLINYWMTWVRQAPGKGLEWVANIKQDGFEKYYVDSVKGRFTISRDNAKNSLYLQMNSLRVEDTAVYYCARQGSYADTYFYHYGMDVWGQGTTVTVS VL: QSALTQPPSVSGAPGQRVTISCTGSSSNIGAGYDAYWYQQLPGTAPKLLIYGNSNRLSGVPDRFSASKSGTSASLAITGLQAEDEADYYCQSYDSSLSIFGGGTKLTVLR = 0.075

What value of measured OD is listed for mAb 11J19 (antibody, V domains shown) VH: EVQLQESGPGLVKPSETLSLSCTVSGGSITRSSYYWGWIRQPPGKGLEWIGNIYYSGTTYYNPSLKSRVTISVDTSKNQFSLKLSSVTAADTAVYYCARLYGSGLDYWGQGTLVTVS VL: DIQLTQSPSFLSASVGDRVTITCRASQGSSRYVAWYQQKPGKAPKLLILAASTLHTGVPSRFSGSGSGTEFTLTISSLQPEDFATYSCQQLNGFLLTFGGGTKVEIKR ?
0.067

What value of measured OD is listed for mAb 18G6 (antibody, V domains shown) VH: QVQLKESGPGLVKPSETLSLTCTVSGGSISSSNYNWGWIRQPPGKGLEWIGSVYYSGSTYFNPSLKSRVTISVDTSKNQFSLKLTSVTAADTAVYYCARLIAFYYDTNGYTWGQGTLVTVS VL: NSIMTQSPFTLSASVGDKVTITCRASQSISPWLAWYQQKPGKAPKLLIYKASSLETGVPSRFSGSESGTEFTLTISGLQPDDFATYYCQQYSSFARTFGQGTKVEIKR ?
0.071

What value of measured OD is listed for mAb 5J8 (antibody, V domains shown) VH: EVQLVESGPGLVKPSDILSLTCAVSGYSISSNYYWGWIRQPPGKGLEWIGSIYHSGSTYYKPSLESRLGISVDTSKNQFSLKLSFVSAADTAVYYCARHVRSGYPDTAYYFDKWGQGTLVTVS VL: SYVLTQPPSVSVAPGETARISCGGNNIGTKVLHWYQQTPGQAPVLVVYDDSDRPSGIPERFSGSNSGNTATLTISRVEVGDEADYYCQVWDISTDQAVFGGGTKLTVLG ?
0.077

What value of measured OD is listed for mAb 25F7 (antibody, V domains shown) VH: EVQLLESGGGLVQPGGSLRLSCAASGFAFSSYGMSWVRQAPGKGLEWVSAFSGSGTSTYYADSVKGRFTISRDKSKNTLYLQMNSLRAEDTAIYYCAKPPGPYIVVAGLFENWGRGTLVTVS VL: QSVLTQPPSVSGAPGQRVTISCTGTSSNIGAGYEVHWYQQLPGTAPKLIINANTNRPSGVPDRFSGSQSGTSASLAITGLRAEDEADYYCQSFDSSLSGWLFGGGTKLTVLG ?
0.076

What value of measured OD is listed for mAb 5I17 (antibody, V domains shown) VH: EVQLVESGGGVVQPGRSLRLSCAASGFSFSNYAMHWVRQAPGKGLEWVALISFDGSDKYYADSVKGRFTMSRDNSKNTLYLQMNSLRAEDTAVYYCARDEPYCGGDCFAFDVWGQGTMVTVS VL: DIQLTQSPSSLSASAGDRVSMTCRASQIISSSLNWYQQKPGKAPKLLIYAASNLQSGVPSRFSGSGSGTDFTLTISSLQPEDFATYYCQQSYSTPPELTFGGGTKVDIKR ?
1.55

What value of measured OD is listed for mAb 10E15 (antibody, V domains shown) VH: EVQLLESGGGVVQPGRSLRLSCAASGFTFRTYGMHWVRQAPGKGLEWVAVISHDGNLKYYGGSVKGRFTISRDNSKNALYLQMNSLRVDDTALYYCARGIGITDAFDIRGQGTMVVVS VL: QSVLTQPPSVSAAPGQKVTISCSGSSSNIGKNYVSWYQQLPGTAPKLLIYDNDKRPSGIPDRFSGSKSGTSATLGITGLQTGDEADYHCGAWDSSLNGGVFGGGTKVTVLG ?
1.69

These data points were gathered from patent US20130289246A1.
